Where these numbers come from: patent US6287840A

target: Cathepsin B from human placenta (Homo sapiens); construct: Cathepsin B from human placenta, obtained from Sigma; purchased Sigma; host or cells: human placenta (tissue); assay: Inhibition of cathepsin B, Z-Arg-Arg-AMC fluorescence progress curves; format: biochemical; details: values without asterisk; 25° C., pH 6.2
What k/KI (kirr/KI) was measured for each of the following?

Q: Request - read-out k/KI (kirr/KI) | tested on Cathepsin B from human placenta (Homo sapiens) | compound CC(C)C[C@H](NC(=O)N1CCOCC1)C(=O)N[C@H](/C=C/S(=O)(=O)c1ccccc1)CCc1ccccc1 [Mu-Leu-HphVSPh]
Result: 4250 M⁻¹ s⁻¹

Q: Request - read-out k/KI (kirr/KI) | tested on Cathepsin B from human placenta (Homo sapiens) | compound CS(=O)(=O)/C=C/[C@H](CCc1ccccc1)NC(=O)[C@H](Cc1ccccc1)NC(=O)N1CCOCC1 [Mu-Phe-HphVSMe]
Result: 5100 M⁻¹ s⁻¹

Q: Request - read-out k/KI (kirr/KI) | tested on Cathepsin B from human placenta (Homo sapiens) | compound O=C(NCCCC[C@@H](/C=C/S(=O)(=O)c1ccccc1)NC(=O)[C@H](Cc1ccccc1)NC(=O)N1CCOCC1)OCc1ccccc1 [Mu-Phe-Lys(Z)VSPh]
Result: 39,200 M^-1 sec^-1

Q: Request - read-out k/KI (kirr/KI) | tested on Cathepsin B from human placenta (Homo sapiens) | compound CC(Cc1ccccc1)(NC(=O)N1CCOCC1)C(=O)N[C@H](/C=C/S(=O)(=O)c1ccccc1)CCc1ccccc1 (mixture of isomers) [Mu-DL-Fam-HphVSPh]
Result: 0 M⁻¹ s⁻¹

Q: Request - read-out k/KI (kirr/KI) | tested on Cathepsin B from human placenta (Homo sapiens) | compound Br.N=C(N)NCCC[C@@H](/C=C/S(=O)(=O)c1ccccc1)NC(=O)[C@H](Cc1ccccc1)NC(=O)N1CCOCC1 [Mu-Phe-ArgVSPh.HBr]
Result: 12,300 M^-1 sec^-1

Q: Request - read-out k/KI (kirr/KI) | tested on Cathepsin B from human placenta (Homo sapiens) | compound O=C(N[C@H](/C=C/S(=O)(=O)c1ccccc1)CCc1ccccc1)C(Cc1cc(I)c(O)c(I)c1)NC(=O)N1CCOCC1 (some centres unmarked) [Mu-Tyr(I2)-HphVSPh]
Result: 39,200 M^-1 sec^-1

Q: Request - read-out k/KI (kirr/KI) | tested on Cathepsin B from human placenta (Homo sapiens) | compound CSCC[C@@H](/C=C/S(=O)(=O)c1ccccc1)NC(=O)[C@H](CC(C)C)NC(=O)[C@H](CC(C)C)NC(C)=O [Ac-Leu-Leu-MetVSPh]
Result: 0 M⁻¹ s⁻¹

Q: Request - read-out k/KI (kirr/KI) | tested on Cathepsin B from human placenta (Homo sapiens) | compound CSCC[C@@H](/C=C/S(=O)(=O)c1ccccc1)NC(=O)[C@H](Cc1ccccc1)NC(=O)N1CCOCC1 [Mu-Phe-MetVSPh]
Result: 7,000 M^-1 sec^-1

Q: Request - read-out k/KI (kirr/KI) | tested on Cathepsin B from human placenta (Homo sapiens) | compound CCCC[C@@H](/C=C/S(=O)(=O)c1ccccc1)NC(=O)[C@H](Cc1ccccc1)NC(=O)N1CCOCC1 [Mu-Phe-NleVSPh]
Result: 7,600 M^-1 sec^-1

Q: Request - read-out k/KI (kirr/KI) | tested on Cathepsin B from human placenta (Homo sapiens) | compound O=C(N[C@H](/C=C/S(=O)(=O)c1ccc2ccccc2c1)CCc1ccccc1)[C@H](Cc1ccccc1)NC(=O)N1CCOCC1 [Mu-Phe-HphVSNp]
Result: 63,700 M^-1 sec^-1

Q: Request - read-out k/KI (kirr/KI) | tested on Cathepsin B from human placenta (Homo sapiens) | compound O=C(N[C@H](/C=C/S(=O)(=O)c1ccccc1)CCc1ccccc1)C(Cc1ccccc1)NC(=O)N1CCOCC1 (some centres unmarked) [Mu-Phe-HphVSPh]
Result: 16,400 M^-1 sec^-1
